target: Solute carrier family 2, facilitated glucose transporter member 1 (Homo sapiens); assay: ST_JUDE_LEISH: Cytotoxicity at 2uM final concentration against transgenic Leishmania Mexicana promastigotes LmGLUT1 that are glucose transport deficient and complemented with the human glucose transporter GLUT1. Activity is measured by DNA content using SYBR green in vitro; assay type: functional
attribute.measured: inhibition (%)
Kindly provide the numeric value in % only, without the unit symbol.

Reported inhibition for COc1cc(NC2=NS(=O)(=O)c3cc(Cl)ccc3N2C)cc(OC)c1OC : what is it? 6.86

Reported inhibition for OC1(c2ccc(Br)cc2)CCN(C2CCN(Cc3ccccc3)CC2)CC1 : what is it? 5.8

Reported inhibition for Cn1ccnc1-c1nc2ccccn2c1NCC(=O)Nc1ccccc1N1CCCCC1 : what is it? -1.68

Reported inhibition for N#CC(NC(=O)C=Cc1ccccc1)c1ccccc1 (stereo not given) : what is it? -1

Reported inhibition for COc1ccc(C(=O)Nc2cc(Br)c3c(c2)CNCC3)cc1C(F)(F)F : what is it? 4.52

Reported inhibition for O=C(Nc1ccc(-c2oc(C(=O)NCCc3cccc(Cl)c3)cc2-c2ccncc2)cc1)Nc1cccc(Cl)c1 : what is it? 0.9

Reported inhibition for CCOc1cc2ncnc(Nc3ccc(OCc4ccccc4Br)c(OC)c3)c2cc1OCC : what is it? 5.55

Reported inhibition for COc1ccc2nccc([C@@H](O)CN3CCC(NC(=O)c4cc5cccnc5[nH]4)CC3)c2c1 : what is it? 5.47

Reported inhibition for Cc1cccc(CN2CCC(C(=O)Nc3ccc(-c4nc5ccccc5[nH]4)cc3)CC2)n1 : what is it? 2.6

Reported inhibition for COc1ccc2nccc(N3CCC(NCc4ccc5c(n4)NC(=O)CS5)CC3)c2n1 : what is it? 0.15

----------
Please provide measured inhibition for the entries that follow.
target: Solute carrier family 2, facilitated glucose transporter member 1 (Homo sapiens) (UniProt P11166); experiment: ST_JUDE_LEISH: Cytotoxicity at 2uM final concentration against transgenic Leishmania Mexicana promastigotes LmGLUT1 that are glucose transport deficient and complemented with the human glucose transporter GLUT1. Activity is measured by DNA content using SYBR green in vitro; type: functional
Sequence (P11166 whole entry): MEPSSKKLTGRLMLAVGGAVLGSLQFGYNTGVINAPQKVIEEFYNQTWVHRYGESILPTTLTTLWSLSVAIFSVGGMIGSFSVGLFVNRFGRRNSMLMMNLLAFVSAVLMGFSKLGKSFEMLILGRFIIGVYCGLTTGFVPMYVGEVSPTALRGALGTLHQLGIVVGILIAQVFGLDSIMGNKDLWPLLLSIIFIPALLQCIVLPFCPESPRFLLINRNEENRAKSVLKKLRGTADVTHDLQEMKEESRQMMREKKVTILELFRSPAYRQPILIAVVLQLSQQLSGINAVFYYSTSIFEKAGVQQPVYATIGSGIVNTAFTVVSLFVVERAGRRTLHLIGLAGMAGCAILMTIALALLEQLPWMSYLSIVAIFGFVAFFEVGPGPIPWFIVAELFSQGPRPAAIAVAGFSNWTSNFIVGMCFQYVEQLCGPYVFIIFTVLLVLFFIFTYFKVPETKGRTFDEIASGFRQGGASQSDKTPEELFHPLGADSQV
Kindly provide the numeric value in % only, without the unit symbol.

Reported inhibition for O=C(Nc1cccc(-c2ccc(CN3CCCC3)cc2)c1)c1ccc(F)cc1 : what is it? -0.73

Reported inhibition for Fc1cccc(COc2ccc(Nc3ncnc4sc(C#CCNC5CCCC5)cc34)cc2Cl)c1 : what is it? 2.71

Reported inhibition for O=C(/C=C/c1ccc(Cl)c(Cl)c1)NCCCCCN1CCC(NC(=O)Nc2ccc3c(c2)OCO3)CC1 : what is it? 0.33

Reported inhibition for COc1cccc(NC(=O)COc2ccc(C(=O)Nc3nc4ccccc4[nH]3)cc2)c1 : what is it? 2.45

Reported inhibition for COC(=O)c1noc(C)c1I : what is it? 0.86

----------
target: Solute carrier family 2, facilitated glucose transporter member 1 (Homo sapiens); assay: ST_JUDE_LEISH: Cytotoxicity at 2uM final concentration against transgenic Leishmania Mexicana promastigotes LmGLUT1 that are glucose transport deficient and complemented with the human glucose transporter GLUT1. Activity is measured by DNA content using SYBR green in vitro; format: functional
attribute.measured: inhibition (%)
Kindly provide the numeric value in % only, without the unit symbol.

Reported inhibition for CCCOc1cc(Cc2cnc(N)nc2N)cc(OC)c1OC : what is it? -1.05

Reported inhibition for CCC(NC[C@@H](O)[C@H](Cc1ccccc1)NC(=O)c1cc(C2CCCC2)cc(N2CCCC2=O)c1)c1cccc(Cl)c1 (stereo not given in full) : what is it? 2.16

Reported inhibition for OC(CNc1ccnc(Nc2ccc(Cl)cc2)n1)c1ccccc1C(F)(F)F (stereo not given) : what is it? 10

Reported inhibition for N#Cc1cccc(NC(=O)Nc2cccc(-c3cccc(-c4nc5cc(F)ccc5[nH]4)c3)c2)c1 : what is it? 9.7

Reported inhibition for COc1ccc2[nH]c(C)cc(=NN=Cc3ccccc3F)c2c1 : what is it? -0.29

Reported inhibition for COc1ccccc1-n1ccnc1SCC(=O)Nc1cccc(C(F)(F)F)c1 : what is it? 3.36

Reported inhibition for COc1cc(OC)nc(-c2cccc(NC(=O)c3ccc4c(=O)n(CCN5CCCCC5)cnc4c3)c2)n1 : what is it? 11.9

Reported inhibition for CC1(C)N=C(N)N=C(N)N1OCCCOc1cccc(C(=O)O)c1 : what is it? 5.03

Reported inhibition for CCC(C)(CC)C(=O)n1ncc2c3c(N)nc(N)nc3ccc21 : what is it? 65.8

Reported inhibition for CCOc1ccc2c(c1)OC(c1ccccc1)(C(F)(F)F)NC2=O (stereo not given) : what is it? 0.56

Reported inhibition for COc1ccc(-c2csc3nc(C)nc(Cl)c23)cc1OC : what is it? -0.82

Reported inhibition for O=C(Nc1ccnc2ccccc12)NC1CCN(CCc2ccccc2)CC1 : what is it? 12.1

Reported inhibition for Nc1c2c(nc3ccc(Oc4ccc(Cl)cc4)cc13)CCCC2 : what is it? 60.9

Reported inhibition for COc1ccc2nccc([C@@H](O)CN3CCC(NCc4nc5c([N+](=O)[O-])cccc5[nH]4)CC3)c2c1 : what is it? 2.43

Reported inhibition for O=C(Oc1ccc(C2CNCCc3c2cc(OC(=O)c2ccc(O)cc2)c(OC(=O)c2ccc(O)cc2)c3Cl)cc1)c1ccc(O)cc1 (stereo not given) : what is it? 4.39

Reported inhibition for CN1CCN(c2cc3c(cc2Cl)CCN3C(=O)Nc2ccc(NC(=O)c3ccc(C(F)(F)F)cc3)cc2)CC1 : what is it? 3.11

Reported inhibition for CCCCNc1ccc(C(=O)NC2CCN(C[C@H](O)c3ccnc4ccc(OC)cc34)CC2)cc1 : what is it? 9.46

Reported inhibition for OC(c1cccc2ccccc12)C1CN(CCc2ccccc2)CCC1(O)c1ccccc1 (stereo not given) : what is it? 9.92

Reported inhibition for CNCCNCc1cccc(-c2cccc(-c3nc4cc(F)ccc4[nH]3)c2)c1 : what is it? 10.2

Reported inhibition for Cc1noc(-c2ccccc2)c1CN1CCCC2(CC(C(=O)NCc3cccc(F)c3F)=NO2)C1 (stereo not given) : what is it? 0.11
